Where these numbers come from: PubChem BioAssay (NCI)

Quick list: growth per entry.
# System: HL-60(TB) leukemia
# measurement-protocol: NCI-60 one-dose screen, 48 h (100 = growth as untreated, 0 = no growth, -100 = all killed)
# recorded-conditions: 10 µM unless noted
Compounds without any hit were thinned out: in the full panel of roughly 83,000, 20% have a hit.
The answer is to be given in %; state only the numeric part.

growth lookup needed for `CC(=O)Nc1nonc1-c1nc2ccccc2n1Cc1ccc(C(C)(C)C)cc1` , thanks.
56.8

Can you check `[N-]=[N+]=NCc1cccc(/C(O)=C/C(=O)C(=O)O)c1` next?
17.3

###

# System: M14 melanoma
# measurement-protocol: NCI-60 one-dose screen, 48 h (100 = growth as untreated, 0 = no growth, -100 = all killed)
# recorded-conditions: 10 µM unless noted
The panel holds about 83,000 compounds, 20% with a hit somewhere; the sample as a whole holds those more often.
Quick list: growth per entry.
The answer is to be given in %; state only the numeric part.

CCOP(=O)(OCC)Oc1ccc(Sc2ccc(OP(=O)(OCC)OCC)cc2)cc1; 100

growth lookup needed for C[C@@H]1O[C@@H](O[C@H]2CC[C@@]3(C)[C@H](CCC4[C@@H]3C(O)C[C@]3(C)[C@@H](c5ccc(=O)oc5)CC[C@]43O)C2)[C@H](O)[C@H](O)[C@H]1O (some centres undefined) , thanks.
-70.7

Can you check `CN(C)P1(N(C)C)=NP(N(C)C)(N(C)C)=NP(N(C)C)(N(C)C)=N1` next?
101

Can you check `CC(=O)[O][Hg][c]1nc2c(c(=O)n(C)c(=O)n2C)n1C` next?
101
